- Test system: Haemophilus influenzae
- TEST_METHOD_NOTES: Antibacterial activity against Haemophilus influenzae group I isolates with ftsI gene mutation by broth microdilution method
- Format: functional
List of MIC values.
Kindly report the value followed by its unit.

CO/N=C(\C(=O)N[C@@H]1C(=O)N2C(C(=O)O)=C(COC(N)=O)CS[C@H]12)c1ccco1	0.5 µg/mL
C=CC1=C(C(=O)O)N2C(=O)[C@@H](NC(=O)/C(=N\OCC(=O)O)c3csc(N)n3)[C@H]2SC1	0.06 µg/mL
CC1(C)S[C@@H]2[C@H](NC(=O)[C@H](N)c3ccccc3)C(=O)N2[C@H]1C(=O)O	0.5 µg/mL

Problem: Fill blank: measured MIC of the compound N[C@@H](C(=O)N[C@@H]1C(=O)N2C(C(=O)O)=C(Cl)CS[C@H]12)c1ccccc1 [CEFACLOR ANHYDROUS] is ____.
Result: 2 µg/mL

Values from ChEMBL document CHEMBL1150802
